Recorded measurements of composite z-score, one per entry
ASSAY_DETAILS: small-molecule microarray binders of probe aEGFR, primary screen, biochemical, biotinylated probe, 635/667 nm fluorescence (AID 1097);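 note: probe is a biotinylated anti-EGFR antibody binding compounds printed on slides; score combines fluorescence near 667 nm and signal to noise of each spot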
RUN_CONDITIONS: higher = more signal
Please give the numeric answer without any surrounding text.

As a guide, the following entries are already answered.
>  <COMPOUND>
COCCCN1C(=O)[C@@]2(Cc3ccccc31)c1ccccc1C(=O)N(Cc1ccccc1OC)[C@H]2c1ccc(CO)cc1

>  <composite z-score>
-0.108

$$$$
>  <COMPOUND>
O=C1NC(=O)C2C1C=CC(C(O)c1ccc(F)cc1)N2Nc1ccccn1 (stereo not given)

>  <composite z-score>
-0.0271

$$$$
>  <COMPOUND>
C=C(COC)C(=O)CC[C@@H](OC(C)=O)c1ccc(OCCO)cc1

>  <composite z-score>
-0.21

$$$$
>  <COMPOUND>
[N-]=[N+]=Nc1ccccc1[C@@H]1OC(c2ccc(OCCCO)cc2)=N[C@]1(Cc1ccccc1)C(N)=O

>  <composite z-score>
0.224

$$$$
>  <COMPOUND>
NCCCC[C@@H]1NC(=O)[C@H]2C[C@@H](C(=O)NCc3ccc(F)cc3)[C@@H](c3cccc(OCCO)c3)N2C1=O

>  <composite z-score>
0.0176

$$$$

q: Please give the documented composite z-score of COC(=O)[C@@]1(Cc2ccc(OC)cc2)[C@H]2c3cc(C(=O)N(C)C)n(Cc4ccsc4Br)c3C[C@H]2CN1C(=O)c1ccccc1
a: 0.301
